# EXPERIMENTAL_SYSTEM: O. volvulus iPGM (Onchocerca volvulus, UniProt I6LDA6)
# Sequence (I6LDA6 whole entry, looked up): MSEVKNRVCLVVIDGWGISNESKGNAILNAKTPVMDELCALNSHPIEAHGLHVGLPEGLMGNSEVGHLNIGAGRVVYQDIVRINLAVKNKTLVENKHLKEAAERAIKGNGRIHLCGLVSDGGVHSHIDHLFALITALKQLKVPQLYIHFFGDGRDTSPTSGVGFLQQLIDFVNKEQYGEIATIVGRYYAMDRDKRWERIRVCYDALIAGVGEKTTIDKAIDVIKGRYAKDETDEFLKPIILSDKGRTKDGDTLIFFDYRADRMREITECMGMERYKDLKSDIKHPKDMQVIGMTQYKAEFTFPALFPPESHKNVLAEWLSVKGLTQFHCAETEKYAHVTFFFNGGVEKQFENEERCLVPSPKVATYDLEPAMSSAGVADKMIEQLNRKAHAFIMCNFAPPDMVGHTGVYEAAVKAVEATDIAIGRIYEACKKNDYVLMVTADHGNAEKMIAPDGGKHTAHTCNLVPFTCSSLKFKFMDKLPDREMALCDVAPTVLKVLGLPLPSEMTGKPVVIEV
# PROCEDURE_DETAILS: biochemical
# CONDITIONS_USED: read-out: O. volvulus iPGM Max Inhibition
Where a SMILES comes first, the peptide text is derived from it. Bridges are numbered along the chain shown (N, C = ends). [ ]: non-standard residue; d: D form.
MEASUREMENT_TYPE: Emax (%)
One number for each entry, in %.

Answered examples (2):
[
  {
    "COMPOUND": "CC(=O)N[C@H](Cc1ccc(O)cc1)C(=O)N[C@@H](CC(=O)O)C(=O)N[C@@H](Cc1ccc(O)cc1)C(=O)N1CCC[C@H]1C(=O)NCC(=O)N[C@@H](CC(=O)O)C(=O)N[C@@H](Cc1ccc(O)cc1)C(=O)N[C@@H](CO)C(=O)N[C@@H](Cc1ccc(O)cc1)C(=O)N[C@@H](CC(C)C)C(=O)N[C@@H](Cc1ccc(O)cc1)C(=O)NCC(=O)N[C@H](C(=O)N[C@@H](CS)C(=O)NCC(N)=O)[C@@H](C)O [Ce-L2] (Ac-[dY]DYPGDYSYLYGTCG-NH2)",
    "Emax (%)": 40.2
  },
  {
    "COMPOUND": "CC[C@H](C)[C@@H]1NC(=O)[C@H](CCCNC(=N)N)NC(=O)[C@H](Cc2ccccc2)NC(=O)[C@@H]2CCCN2C(=O)[C@H](CC(N)=O)NC(=O)[C@H](C)NC(=O)[C@H](CC(C)C)NC(=O)[C@H]([C@@H](C)O)NC(=O)[C@H]([C@@H](C)CC)NC(=O)[C@H](Cc2ccc(O)cc2)NC(=O)CSC[C@@H](C(=O)NCC(N)=O)NC(=O)[C@H](Cc2c[nH]cn2)NC(=O)[C@H](CC(C)C)NC1=O [Ce-3] ({CH2CO}-YITLANPFRILHCG-NH2; thioether N-13)",
    "Emax (%)": 22.9
  }
]

Could you tell me Emax for each of these compounds? They are listed below.
1. CC[C@H](C)[C@@H]1NC(=O)[C@H](CCCNC(=N)N)NC(=O)[C@H](Cc2ccccc2)NC(=O)[C@@H]2CCCN2C(=O)[C@H](CC(N)=O)NC(=O)[C@H](C)NC(=O)[C@H](CC(C)C)NC(=O)[C@H]([C@@H](C)O)NC(=O)[C@H]([C@@H](C)O)NC(=O)[C@H](Cc2ccc(O)cc2)NC(=O)CSC[C@@H](C(=O)NCC(N)=O)NC(=O)[C@H](Cc2c[nH]cn2)NC(=O)[C@H](CC(C)C)NC1=O [Ce-4] ({CH2CO}-YTTLANPFRILHCG-NH2; thioether N-13)
2. CC(C)C[C@H](NC(=O)[C@H](Cc1ccc(O)cc1)NC(=O)[C@@H]1CSCC(=O)N[C@H](Cc2ccc(O)cc2)C(=O)N[C@@H](CC(=O)O)C(=O)N[C@@H](Cc2ccc(O)cc2)C(=O)N2CCC[C@H]2C(=O)NCC(=O)N[C@@H](CC(=O)O)C(=O)N[C@@H](Cc2ccc(O)cc2)C(=O)N1)C(=O)N[C@@H](Cc1ccc(O)cc1)C(=O)NCC(N)=O

[23, 78.4]

Could you tell me Emax for each of these compounds? They are listed below.
1. CC(C)C[C@H](NC(=O)[C@H](Cc1ccc(O)cc1)NC(=O)[C@@H]1CSCC(=O)N[C@H](Cc2ccc(O)cc2)C(=O)N[C@@H](CC(=O)O)C(=O)N[C@@H](Cc2ccc(O)cc2)C(=O)N2CCC[C@H]2C(=O)NCC(=O)N[C@@H](CC(=O)O)C(=O)N[C@@H](Cc2ccc(O)cc2)C(=O)N1)C(N)=O [Ce-2e] ({CH2CO}-[dY]DYPGDYCYL-NH2; thioether N-8)
2. CC(C)C[C@@H]1NC(=O)[C@@H](Cc2ccc(O)cc2)NC(=O)CSC[C@@H](C(=O)N[C@@H](CC(N)=O)C(=O)N[C@H](C(=O)N[C@@H](CS)C(=O)NCC(N)=O)[C@@H](C)O)NC(=O)[C@H](CC(N)=O)NC(=O)[C@@H]2CCCN2C(=O)[C@H](Cc2c[nH]c3ccccc23)NC(=O)[C@H](CCC(=O)O)NC1=O [Bm-4] ({CH2CO}-[dY]LEWPNCNTCG-NH2; thioether N-7)

1. 55.5
2. 85.7
